- test.target: Recombinant human his-tagged IGF 1R extracellular domain protein (human) (UniProt P08069)
- assay.summary: SPR, captured IgG, IGF-1R ECD-his analyte, dissociation pH 6
measured.property: koff (s⁻¹)
Answers are plain numbers, in s⁻¹.

Consider the following items and state reported koff for each.
1. VRDN-02564 (antibody, V domains shown) VH: EVQLVQSGGGLVKPGGSLRLSCAASGFTFSSFAMHWVRQAPGKGLEWISVIHTRGATYYADSVKGRFTISRDNAKNSLYLQMNSLRAEDTAVYYCARLGNFYYGHDVWGQGTTVTVSS VL: EIVLTQSPGTLSVSPGERATLSCRASQSIGSSLHWYQQKPGQAPRLLIKYASQSLSGIPDRFSGSGSGTDFTLTISRLEPEDFAVYYCHQSSRLPHTFGQGTKVEIK
2. VRDN-02522 (antibody, V domains shown) VH: EVQLVQSGGGLVKPGGSLRLSCAASGFTFSSFAMHWVRQAPGKGLEWISVIDTRGATYYADSVKGRFTISRDNAKNSLYLQMNSLRAEDTAVYYCARLGNFHYGMDVWGQGTTVTVSS VL: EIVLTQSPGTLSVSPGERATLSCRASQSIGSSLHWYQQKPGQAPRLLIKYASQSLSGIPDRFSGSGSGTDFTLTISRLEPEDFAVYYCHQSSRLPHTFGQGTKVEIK

Reply text:
1: 0.000507; 2: 1e-06

Consider the following items and state reported koff for each.
1. VRDN-02560 (antibody, V domains shown) VH: EVQLVQSGGGLVKPGGSLRLSCAASGFTFSSFHMHWVRQAPGKGLEWISVIDTRGATYYADSVKGRFTISRDNAKNSLYLQMNSLRAEDTAVYYCARLGNFYYHMDVWGQGTTVTVSS VL: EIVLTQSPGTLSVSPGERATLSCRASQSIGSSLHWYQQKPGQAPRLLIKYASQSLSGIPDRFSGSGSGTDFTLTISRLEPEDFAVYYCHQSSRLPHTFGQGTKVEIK
2. VRDN-02533 (antibody, V domains shown) VH: EVQLVQSGGGLVKPGGSLRLSCAASGFTFSSFAMHWVRQAPGKGLEWISVIDTRGATYYADSVKGRFTISRDNAKNSLYLQMNSLRAEDTAVYYCARLGNFYYGMDVWGQGTTVTVSS VL: EIVLTQSPGTLSVSPGERATLSCRASQSHGSSLHWYQQKPGQAPRLLIKYASQSLSGIPDRFSGSGSGTDFTLTISRLEPEDFAVYYCHQSSRLPHTFGQGTKVEIK
3. VRDN-02565 (antibody, V domains shown) VH: EVQLVQSGGGLVKPGGSLRLSCAASGFTFSSFAMHWVRQAPGKGLEWISVIDTRGATYYADSVKGRFTISRDNAKNSLYLQMNSLRAEDTAVYYCHRLGNFYYHMDVWGQGTTVTVSS VL: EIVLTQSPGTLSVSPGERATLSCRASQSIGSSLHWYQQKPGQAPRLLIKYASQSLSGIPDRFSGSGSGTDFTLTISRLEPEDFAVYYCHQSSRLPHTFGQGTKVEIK

Reply text:
1. 0.000541
2. 1e-06
3. 0.0198
